compound: C[C@@H]1Cc2cc3c(cc2C(c2ccc(N)cc2)=NN1c1cnns1)OCO3
melting point: 220 to 221 °C
--
compound: CC1Cc2ccc(Cl)cc2C(c2ccc(N)cc2)=NN1C1=NCCS1 (racemic)
melting point: 213 to 216 °C
--
compound: Cc1ncc(N2N=C(c3ccc(N)cc3)c3cc4c(cc3CC2C)OCO4)o1 (racemic)
melting point: 148 to 150 °C
--
compound: C[C@H]1Cc2cc3c(cc2C(c2ccc(N)cc2)=NN1C1=NCCS1)OCO3
melting point: 150 to 152 °C
--
compound: CC1Cc2cc3c(cc2C(c2ccc(N)cc2)=NN1c1nc(C(=O)O)cs1)OCO3 (racemic)
melting point: > 260 °C (dec.)
--
compound: CC(=O)Nc1ccc(C2=NN(c3nccs3)[C@H](C)Cc3cc4c(cc32)OCO4)cc1
melting point: 126 °C
--
compound: CC1Cc2cc3c(cc2C(c2ccc(N)cc2)=NN1C1=NN=C(NC2CC2)[SH]1C)OCO3 (racemic)
melting point: 135 to 138 °C
--
compound: CC1Cc2cc3c(cc2C(c2ccc(N)cc2)=NN1c1nnn[nH]1)OCO3 (racemic)
melting point: > 360 °C
--
compound: Cc1cc(C2=NN(c3nnc(CC#N)s3)[C@H](C)Cc3cc4c(cc32)OCO4)ccc1N
melting point: 135 to 140 °C
--
compound: CC1Cc2cc3c(cc2C(c2ccc(N)cc2)=NN1c1nc(-c2ccccc2)cs1)OCO3 (racemic)
melting point: 221 to 223 °C
--
compound: Cc1nnc(N2N=C(c3cc(C)c(N)c(C)c3)c3cc4c(cc3C[C@H]2C)OCO4)s1
melting point: 280 to 281 °C
--
compound: CC1Cc2cc3c(cc2C(c2ccc(N)cc2)=NN1c1ncccn1)OCO3 (racemic)
melting point: 233 to 235 °C
--
compound: CC1=Cc2cc3c(cc2C(c2ccc(N)cc2)=NN1c1ncon1)OCO3.Cl
melting point: 124 to 126 °C
--
compound: CC1Cc2cc3c(cc2C(c2ccc(N)cc2)=NN1C1=NC(=O)C(C)(C)S1)OCO3 (racemic)
melting point: 124 to 130 °C
--
compound: C[C@@H]1Cc2cc3c(cc2C(c2ccc(N)cc2)=NN1c1nnco1)OCO3
melting point: 187 to 190 °C
--
compound: CSCc1nnc(N2N=C(c3ccc([N+](=O)[O-])c(C)c3)c3cc4c(cc3C[C@H]2C)OCO4)s1
melting point: 132 to 134 °C

###

measuredEndpoint: melting point

compound: Cc1cc(C2=NN(c3nnc(CC#N)s3)[C@H](C)Cc3cc4c(cc32)OCO4)ccc1[N+](=O)[O-] [Example 142]
measuredEndpoint: melting point
recordedResult: 118 to 122 °C
//
compound: CC1Cc2cc3c(cc2C(c2ccc(N)cc2)=NN1c1ncnn1C)OCO3 (racemic) [Example 115]
measuredEndpoint: melting point
recordedResult: 182 to 183 °C
//
compound: Cc1csc(N2N=C(c3ccc(N)cc3)c3cc(Cl)c(Cl)cc3CC2C)n1 (racemic) [Example 81]
measuredEndpoint: melting point
recordedResult: 182 to 184 °C
//
compound: CC1Cc2cc3c(cc2C(c2ccc(N)cc2)=NN1C1=NC(=O)CS1)OCO3 (racemic) [Example 71]
measuredEndpoint: melting point
recordedResult: 218 to 220 °C
//
compound: Cc1nnc(N2N=C(c3ccc(N)c(C)c3)c3cc4c(cc3C[C@H]2C)OCO4)o1 [Example 181]
measuredEndpoint: melting point
recordedResult: 140 to 145 °C
//
compound: Cc1cc(C2=NN(C3=NCCS3)[C@H](C)Cc3cc4c(cc32)OCO4)ccc1N [Example 163]
measuredEndpoint: melting point
recordedResult: 125 to 128 °C
//
compound: C[C@H]1Cc2cc3c(cc2C(c2ccc(N)cc2)=NN1c1nccs1)OCO3 [Example 62]
measuredEndpoint: melting point
recordedResult: 124 to 128 °C
//
compound: CSCc1nnc(N2N=C(c3ccc(N)c(C)c3)c3cc4c(cc3C[C@H]2C)OCO4)s1 [Example 174]
measuredEndpoint: melting point
recordedResult: 177 to 180 °C
//
compound: CCc1nnc(N2N=C(c3ccc(N)cc3)c3cc4c(cc3C[C@H]2C)OCO4)s1 [Example 89]
measuredEndpoint: melting point
recordedResult: 142 to 144 °C
//
compound: CCc1nnc(N2N=C(c3ccc([N+](=O)[O-])cc3)c3cc4c(cc3C[C@H]2C)OCO4)s1 [Example 31]
measuredEndpoint: melting point
recordedResult: 105 °C
//
compound: CCCc1nnc(N2N=C(c3ccc(N)c(C)c3)c3cc4c(cc3C[C@H]2C)OCO4)s1 [Example 166]
measuredEndpoint: melting point
recordedResult: 150 to 154 °C
//
compound: Cc1cc(C2=NN(c3nccs3)[C@H](C)Cc3cc4c(cc32)OCO4)ccc1N [Example 164]
measuredEndpoint: melting point
recordedResult: 124 to 127 °C
//
compound: Cc1csc(N2N=C(c3ccc(N)cc3)c3cc4c(cc3CC2C)OCO4)n1 (racemic) [Example 63]
measuredEndpoint: melting point
recordedResult: 190 to 191 °C
//
compound: CC(=O)Nc1ccc(C2=NN(c3nnc(C)s3)C(C)Cc3cc4c(cc32)OCO4)cc1C (racemic) [Example 131]
measuredEndpoint: melting point
recordedResult: 258 to 262 °C
//
compound: CC1Cc2cc3c(cc2C(c2ccc(N)cc2)=NN1c1nc(=O)n(C)s1)OCO3 (racemic) [Example 103]
measuredEndpoint: melting point
recordedResult: 213 °C
//
compound: CC1Cc2cc3c(cc2C(c2ccc(N)cc2)=NN1C1=NNC(=O)CS1)OCO3 (racemic) [Example 100]
measuredEndpoint: melting point
recordedResult: 172 to 176 °C
//
compound: CC(=O)Nc1ccc(C2=NN(c3nccs3)[C@@H](C)Cc3cc4c(cc32)OCO4)cc1 [Example 124]
measuredEndpoint: melting point
recordedResult: 124 to 128 °C
//
compound: CC1Cc2cc3c(cc2C(c2ccc([N+](=O)[O-])cc2)=NN1c1nnc(CCl)s1)OCO3 (racemic) [Example 34]
measuredEndpoint: melting point
recordedResult: 210 to 211 °C
//
compound: CCc1nnc(N2N=C(c3ccc(N)c(C)c3)c3cc4c(cc3C[C@H]2C)OCO4)s1 [Example 165]
measuredEndpoint: melting point
recordedResult: 129 to 133 °C
//
compound: CC1SC(N2N=C(c3ccc(N)cc3)c3cc4c(cc3CC2C)OCO4)=NC1=O (racemic) [Example 72]
measuredEndpoint: melting point
recordedResult: 200 to 204 °C
//
compound: CC(=O)OCc1nnc(N2N=C(c3ccc([N+](=O)[O-])c(C)c3)c3cc4c(cc3C[C@H]2C)OCO4)s1 [Example 141]
measuredEndpoint: melting point
recordedResult: 110 to 115 °C

###

measuredEndpoint: melting point

compound: Cc1nnc(N2N=C(c3ccc(N)cc3)c3cc4c(cc3C[C@H]2C)OCO4)o1
measuredEndpoint: melting point
recordedResult: 145 to 149 °C
--
compound: CC(=O)Nc1ccc(C2=NN(C3=NCCO3)C(C)Cc3cc4c(cc32)OCO4)cc1 (racemic)
measuredEndpoint: melting point
recordedResult: 124 to 128 °C
--
compound: CC1Cc2cc3c(cc2C(c2ccc(N)cc2)=NN1c1ncn(C)n1)OCO3 (racemic)
measuredEndpoint: melting point
recordedResult: 165 to 168 °C
--
compound: COc1ccc2c(c1)C(c1ccc(N)cc1)=NN(c1nccs1)C(C)C2 (racemic)
measuredEndpoint: melting point
recordedResult: 105 to 107 °C
--
compound: CCOC(=O)c1nnc(N2N=C(c3ccc([N+](=O)[O-])c(C)c3)c3cc4c(cc3C[C@H]2C)OCO4)s1
measuredEndpoint: melting point
recordedResult: 115 to 118 °C
--
compound: CC1Cc2cc3c(cc2C(c2ccc(N)cc2)=NN1C1=NC(=O)CCS1)OCO3 (racemic)
measuredEndpoint: melting point
recordedResult: 226 to 228 °C
--
compound: Cc1cc(C2=NN(c3nccs3)[C@H](C)Cc3cc4c(cc32)OCO4)cc(C)c1N
measuredEndpoint: melting point
recordedResult: 202 to 203 °C
--
compound: CC1Cc2cc3c(cc2C(c2ccc([N+](=O)[O-])cc2)=NN1c1nnc(-c2ccccc2)s1)OCO3 (racemic)
measuredEndpoint: melting point
recordedResult: 210 to 212 °C
--
compound: Cc1nnc(N2N=C(c3cc(C)c(N)c(C)c3)c3cc4c(cc3C[C@H]2C)OCO4)o1
measuredEndpoint: melting point
recordedResult: 148 to 150 °C
